I'd be grateful if you could share measured pKd for these entries.
target_desc: T1, P60 (huANGPTL7-Fibrinogen-his) (human, UniProt O43827 129-343)
T1 construct: also called human ANGPTL7 fibrinogen domain; not shown: C-terminal short linker and His tag
T1 sequence: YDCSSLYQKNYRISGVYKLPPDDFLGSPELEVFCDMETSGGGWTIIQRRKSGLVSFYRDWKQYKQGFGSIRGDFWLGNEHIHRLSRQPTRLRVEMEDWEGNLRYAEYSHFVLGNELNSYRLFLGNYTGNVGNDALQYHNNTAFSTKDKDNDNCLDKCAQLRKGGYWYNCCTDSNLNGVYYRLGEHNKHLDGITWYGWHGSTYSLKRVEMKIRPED
test_protocol: BLI Octet HTX; IgG on AHC sensor; P60 at 200 nM; 1:1 fit
Value format note: pKd is -log10 of concentration (mol/L); just state the number.

Identify pKd associated with the binder ATX-P-425 (antibody, human IgG1, kappa, N297A, V domains shown, Full chains (VH + hIgG1-Agly-Fc)) VH: EVQLVESGGGLVKPGGSLRLSCAASGFTFSTYSMNWVRQAPGKGLEWVSSITSSSSYMFYADSVMGRFTISRDNAKNSLYLQMNSLRAEDTADYYCARDSNWGEAFDIWGQGTMVTVSS VL: DIQMTQSPSSLSASVGDRVTITCRASQGIRIDLGWFQQKPGKAPKRLIYAASSLPSGVPSRFSGSGSGTEFTLTISSLQPEDFATYYCLQHNSYPWTFGQGTKVEIKR
6.52

Identify pKd associated with the binder ATX-P-424 (antibody, human IgG1, kappa, N297A, V domains shown, Full chains (VH + hIgG1-Agly-Fc)) VH: EVQLVESGGGLVKPGGSLRLSCAASGFTFSSYSMNWVRQAPGKGLEWVSSITSSSYIFYADSLKGRFTISRDNAKNSLFLQMNSLRAEDTAVYYCARDSNWGEAFDIWGQGTMVTVSS VL: DIQMTQSPSSLSASVGDRVTITCRASQGIRNDLGWYQQKPGKAPKRLIYAASSLPSGVPSRFSGSGSGTEFTLTISSLQPEDFAIYYCLQHNSYPWTFGQGTKVEIKR
6.97

Identify pKd associated with the binder ATX-P-423 (antibody, human IgG1, kappa, N297A, V domains shown, Full chains (VH + hIgG1-Agly-Fc)) VH: QVQLVESGGGVVQPGRSLRLSCAASGFTFSSYGMHWVRQAPGKGLEWVSHITYDGSDKYYGDSVKGRFTISRDNSKNTLYLQMNSLRAEDTAVYYCAKDGYSSGWWYFDYWGQGTLVTVSS VL: DIQMTQSPSSLSASVGDRVTITCRASQGIRNDLGWYQQKPGKAPKRLIYAASSLQSGVPSRFSGSGSGTEFALTISSLQPEDFATYYCLQHNSYPLTFGGGTKLEIKR
7.74

Identify pKd associated with the binder ATX-P-427 (antibody, human IgG1, kappa, N297A, V domains shown, Full chains (VH + hIgG1-Agly-Fc)) VH: EVQLVESGGGVVRPGGSLRLSCAASGFSFDDYGMSWVRQVPGKGLEWVSGINWNGGSTGYADSVKGRFTISRDNAKNSLYLQMSSLRAEDTALYYCASYSGSFRDAFDIWGQGTMVTVSS VL: AIQMTQSPSSLSASVGDRVTITCRASQGIRNDLGWYQQKPGKAPKLLIYAASSLQSGVPSRFSGSGSGTDFTLTISSLQPEDFATYYCLQDYNYPYTFGQGTKLEIKR
7.19

Identify pKd associated with the binder ATX-P-442 (antibody, human IgG1, kappa, N297A, V domains shown, Full chains (VH + hIgG1-Agly-Fc)) VH: QITLKESGPTLVKPTQTLTLTCTFSGFSLSTSGVGVGWIRQPPGKALEWLALIYWNDDKRYSPSLKSRLTITKDTSKNLVVLTMTNMDPVDTATYYCARDYGDYWFFDLWGRGTPVTVSS VL: DIQMTQSPSSLSASVGDRVTITCRASQGISSYLAWYQQKPGKAPKLLIYAASSLQSGVPSRFSGSGSGTDFTLTISSLQPEDFATYYCQQSFSTPLTFGGGTKLEIKR
8.34

Identify pKd associated with the binder ATX-P-448 (antibody, human IgG1, kappa, N297A, V domains shown, Full chains (VH + hIgG1-Agly-Fc)) VH: QVQLVESGGGVVQPGRSLRLSCAASGFPFSSYGMHWVRQAPGKGLEWVAVMSYDGINGYYADSVKGRFTISRDNSKNTLYLQMNSLRAEDTAVYYCARLVYADDAFDIWGQGTTVTVSS VL: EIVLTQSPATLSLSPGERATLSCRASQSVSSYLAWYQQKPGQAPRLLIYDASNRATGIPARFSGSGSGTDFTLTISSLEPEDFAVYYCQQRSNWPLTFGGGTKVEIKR
8.33
